Target entity: Flpin-293-PDE4B2 cells (Homo sapiens, UniProt Q07343)
Sequence (Q07343 1-564 isoform Q07343-2): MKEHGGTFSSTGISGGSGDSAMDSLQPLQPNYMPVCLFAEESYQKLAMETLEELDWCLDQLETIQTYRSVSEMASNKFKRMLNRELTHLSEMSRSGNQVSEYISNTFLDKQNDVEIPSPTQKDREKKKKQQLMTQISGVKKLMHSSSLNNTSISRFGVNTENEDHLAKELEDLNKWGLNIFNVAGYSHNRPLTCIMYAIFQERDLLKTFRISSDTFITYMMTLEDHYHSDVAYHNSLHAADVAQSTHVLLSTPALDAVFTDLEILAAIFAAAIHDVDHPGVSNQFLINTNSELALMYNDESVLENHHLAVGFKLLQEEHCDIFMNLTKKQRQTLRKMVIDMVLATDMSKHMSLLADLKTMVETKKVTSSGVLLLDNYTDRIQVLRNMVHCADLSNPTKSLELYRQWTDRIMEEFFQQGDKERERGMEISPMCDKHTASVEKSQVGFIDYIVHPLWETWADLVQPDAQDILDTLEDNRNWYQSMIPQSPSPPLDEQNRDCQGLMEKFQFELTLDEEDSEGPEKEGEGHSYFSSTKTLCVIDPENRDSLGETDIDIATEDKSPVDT
Test name: cell-based
Condition info: read-out: Cell Inhibition % @100 nM, 100 nM, Flpin-293-PDE4B2 cells
Measured property: inhibition at 0.1 µM (%)

[[record]]
compound = "[O-][S+]1CCc2nc(N3CCc4cc(N5CCC[C@H]5CO)ccc4C3)nc(NC3(CO)CCC3)c21 (stereo partly shown)"
recorded_result = 102

[[record]]
compound = "[O-][S+]1CCc2nc(N3CCc4ccsc4C3)nc(NC3(CO)CCC3)c21 (stereo not shown)"
recorded_result = 66.6


I = COc1ccc2c(c1)OC[C@H]1CN(c3nc4c(c(NC5(CO)CCC5)n3)[S+]([O-])CC4)CC[C@H]21 (stereo partly shown)
II = [O-][S+]1CCc2nc(N3CCc4cnc(Cl)cc4C3)nc(NC3(CO)CCC3)c21 (stereo not shown)
[Q] # query: argmin of inhibition at 0.1 µM over I and II Your answer should be the label of the entry you select.
[A] II
